Hello, the source for this data is paper PMC9350903, in case you need it.

test-system: Tyrosine protein kinase LCK (Homo sapiens)
Sequence (P06239 whole entry): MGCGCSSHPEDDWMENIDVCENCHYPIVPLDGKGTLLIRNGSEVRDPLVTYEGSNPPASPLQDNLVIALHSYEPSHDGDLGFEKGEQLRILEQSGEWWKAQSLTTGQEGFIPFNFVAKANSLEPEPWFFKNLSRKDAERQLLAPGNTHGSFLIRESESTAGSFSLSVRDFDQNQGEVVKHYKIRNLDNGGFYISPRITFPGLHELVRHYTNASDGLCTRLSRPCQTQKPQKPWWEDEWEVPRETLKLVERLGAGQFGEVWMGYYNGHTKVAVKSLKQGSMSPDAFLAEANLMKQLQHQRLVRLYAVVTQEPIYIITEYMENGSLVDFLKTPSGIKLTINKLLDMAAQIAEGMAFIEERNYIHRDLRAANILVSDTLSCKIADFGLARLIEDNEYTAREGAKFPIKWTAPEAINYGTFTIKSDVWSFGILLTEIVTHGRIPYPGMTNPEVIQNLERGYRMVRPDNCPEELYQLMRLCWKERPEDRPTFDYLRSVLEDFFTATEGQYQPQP
metric: IC50
Form entry: enter the amount, then its unit.

input: Which IC50 is reported for this molecule? `CN1CCN(c2ccc(NC(=O)c3ccc(C#N)o3)c(N3CCCCC3)c2)CC1`
output: 22 nM

* * *

test-system: insulin receptor (Homo sapiens, UniProt P06213)
Sequence (P06213 28-1382): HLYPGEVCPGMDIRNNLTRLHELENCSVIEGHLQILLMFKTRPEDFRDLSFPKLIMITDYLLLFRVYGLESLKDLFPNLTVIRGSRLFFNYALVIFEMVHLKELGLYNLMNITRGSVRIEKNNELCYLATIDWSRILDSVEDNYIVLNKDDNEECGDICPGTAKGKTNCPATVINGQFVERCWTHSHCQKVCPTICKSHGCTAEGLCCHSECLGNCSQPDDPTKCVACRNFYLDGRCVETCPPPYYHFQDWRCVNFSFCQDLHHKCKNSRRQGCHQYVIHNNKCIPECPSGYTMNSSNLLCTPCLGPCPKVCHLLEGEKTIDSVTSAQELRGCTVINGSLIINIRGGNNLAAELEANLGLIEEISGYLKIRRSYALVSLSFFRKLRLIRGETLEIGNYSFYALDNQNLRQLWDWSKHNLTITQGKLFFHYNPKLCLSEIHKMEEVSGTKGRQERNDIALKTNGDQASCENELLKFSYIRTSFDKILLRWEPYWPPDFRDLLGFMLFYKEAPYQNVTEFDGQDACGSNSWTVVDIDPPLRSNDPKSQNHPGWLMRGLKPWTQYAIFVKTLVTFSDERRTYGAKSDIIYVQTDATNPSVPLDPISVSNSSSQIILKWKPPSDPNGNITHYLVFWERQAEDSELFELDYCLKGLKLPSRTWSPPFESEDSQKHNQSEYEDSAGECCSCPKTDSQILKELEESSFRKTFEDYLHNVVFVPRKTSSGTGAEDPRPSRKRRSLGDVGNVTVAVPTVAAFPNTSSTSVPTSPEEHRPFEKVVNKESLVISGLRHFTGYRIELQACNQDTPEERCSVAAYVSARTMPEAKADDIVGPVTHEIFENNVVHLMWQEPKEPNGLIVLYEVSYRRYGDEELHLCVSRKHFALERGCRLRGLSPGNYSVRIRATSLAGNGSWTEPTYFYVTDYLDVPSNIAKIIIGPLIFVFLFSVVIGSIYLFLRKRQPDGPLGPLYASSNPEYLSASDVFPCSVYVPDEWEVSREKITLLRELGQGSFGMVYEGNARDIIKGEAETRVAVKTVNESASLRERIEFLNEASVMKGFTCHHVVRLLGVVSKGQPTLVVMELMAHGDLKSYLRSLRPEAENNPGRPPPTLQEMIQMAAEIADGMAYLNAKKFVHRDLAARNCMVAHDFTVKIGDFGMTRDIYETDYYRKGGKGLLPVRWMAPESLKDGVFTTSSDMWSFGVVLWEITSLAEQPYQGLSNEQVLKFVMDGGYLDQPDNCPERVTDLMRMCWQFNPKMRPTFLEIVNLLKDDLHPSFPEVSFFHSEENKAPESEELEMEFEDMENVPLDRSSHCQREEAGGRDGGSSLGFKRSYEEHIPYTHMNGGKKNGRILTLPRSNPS
test: Eurofins DiscoverX SAFETYscan CNS safety panel
metric: pIC50
Quick note: pIC50 values are minus log10 of concentrations in mol/L.

input: Which pIC50 is reported for this molecule? CN1CCN(c2ccc(NC(=O)c3ccc(C#N)o3)c(N3CCCCC3)c2)CC1 [CPPC]
output: 7.15

* * *

test-system: vascular endothelial growth factor receptor 2 (Homo sapiens, UniProt P35968)
Sequence (P35968 20-1356): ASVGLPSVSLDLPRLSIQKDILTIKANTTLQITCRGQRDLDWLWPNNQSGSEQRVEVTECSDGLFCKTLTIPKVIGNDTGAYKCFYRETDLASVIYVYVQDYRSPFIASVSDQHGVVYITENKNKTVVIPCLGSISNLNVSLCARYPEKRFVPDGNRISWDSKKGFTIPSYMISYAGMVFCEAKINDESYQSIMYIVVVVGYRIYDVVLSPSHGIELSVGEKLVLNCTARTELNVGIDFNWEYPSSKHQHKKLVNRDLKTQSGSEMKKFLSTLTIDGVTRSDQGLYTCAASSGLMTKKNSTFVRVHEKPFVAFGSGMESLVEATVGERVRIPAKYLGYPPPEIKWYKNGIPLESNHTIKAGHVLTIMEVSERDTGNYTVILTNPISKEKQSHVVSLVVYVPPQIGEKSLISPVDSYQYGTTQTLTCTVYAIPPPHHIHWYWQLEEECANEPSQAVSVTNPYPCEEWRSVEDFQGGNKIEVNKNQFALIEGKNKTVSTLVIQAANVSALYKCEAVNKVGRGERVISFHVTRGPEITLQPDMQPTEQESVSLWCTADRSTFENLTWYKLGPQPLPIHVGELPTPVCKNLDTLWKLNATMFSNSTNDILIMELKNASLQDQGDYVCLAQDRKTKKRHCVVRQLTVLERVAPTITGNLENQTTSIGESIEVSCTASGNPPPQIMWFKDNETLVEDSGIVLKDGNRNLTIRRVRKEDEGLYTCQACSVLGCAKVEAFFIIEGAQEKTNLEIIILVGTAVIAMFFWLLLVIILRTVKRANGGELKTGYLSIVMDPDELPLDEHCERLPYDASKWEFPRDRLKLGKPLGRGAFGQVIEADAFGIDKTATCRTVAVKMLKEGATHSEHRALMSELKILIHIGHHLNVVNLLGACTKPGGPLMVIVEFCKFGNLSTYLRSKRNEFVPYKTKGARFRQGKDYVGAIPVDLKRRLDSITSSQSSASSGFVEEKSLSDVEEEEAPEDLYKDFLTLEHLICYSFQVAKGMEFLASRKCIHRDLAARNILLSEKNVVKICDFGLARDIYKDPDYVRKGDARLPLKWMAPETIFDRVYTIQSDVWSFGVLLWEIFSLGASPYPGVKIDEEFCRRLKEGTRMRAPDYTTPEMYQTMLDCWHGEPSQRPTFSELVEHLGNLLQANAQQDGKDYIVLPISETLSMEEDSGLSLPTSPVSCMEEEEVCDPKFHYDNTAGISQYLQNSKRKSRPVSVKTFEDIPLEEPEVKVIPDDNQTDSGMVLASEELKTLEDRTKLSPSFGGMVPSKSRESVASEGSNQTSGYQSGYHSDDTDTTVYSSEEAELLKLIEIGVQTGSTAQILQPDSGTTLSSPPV
metric: pIC50
Quick note: pIC50 values are minus log10 of concentrations in mol/L.

input: Which pIC50 is reported for this compound? CN1CCN(c2ccc(NC(=O)c3ccc(C#N)o3)c(N3CCCCC3)c2)CC1 [CPPC]
output: 7.13
